Reported fold change of affinity values follow for various binders
Target: T1, Human CD3eg linker (human)
T1 construct: Single-chain construct; also called recombinant human CD3
T1 chain: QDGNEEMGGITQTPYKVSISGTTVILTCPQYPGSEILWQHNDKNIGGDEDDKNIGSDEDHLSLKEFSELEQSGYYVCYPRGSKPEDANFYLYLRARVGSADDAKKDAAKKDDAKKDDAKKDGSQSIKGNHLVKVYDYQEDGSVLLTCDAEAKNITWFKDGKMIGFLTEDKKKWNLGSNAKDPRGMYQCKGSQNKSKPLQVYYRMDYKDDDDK
Test: SPR; fold vs parent H183/L072
// units = fold; emit number, no label

Solved cases below.
binder	fold change of affinity, fold
H183/L072 VL L33V (antibody, name in Kabat numbering, V domains shown) VH: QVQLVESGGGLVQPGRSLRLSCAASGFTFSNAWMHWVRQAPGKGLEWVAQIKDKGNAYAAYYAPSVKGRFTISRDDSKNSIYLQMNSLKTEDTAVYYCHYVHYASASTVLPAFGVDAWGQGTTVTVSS VL: DIVMTQSPLSLPVTPGEPASISCQASQELVHMNRNTYVHWYQQKPGQAPRLLIYKVSNRFPGVPDRFSGSGSGTDFTLKISRVEAEDVGVYYCAQGTSVPFTFGQGTKLEIK	0.4
H183/L072 VL L33S (antibody, name in Kabat numbering, V domains shown) VH: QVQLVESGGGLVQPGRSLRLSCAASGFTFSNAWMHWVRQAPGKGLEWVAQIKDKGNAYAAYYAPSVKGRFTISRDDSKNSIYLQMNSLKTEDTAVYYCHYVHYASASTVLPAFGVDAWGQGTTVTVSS VL: DIVMTQSPLSLPVTPGEPASISCQASQELVHMNRNTYSHWYQQKPGQAPRLLIYKVSNRFPGVPDRFSGSGSGTDFTLKISRVEAEDVGVYYCAQGTSVPFTFGQGTKLEIK	0
H183/L072 VL N30V (antibody, name in Kabat numbering, V domains shown) VH: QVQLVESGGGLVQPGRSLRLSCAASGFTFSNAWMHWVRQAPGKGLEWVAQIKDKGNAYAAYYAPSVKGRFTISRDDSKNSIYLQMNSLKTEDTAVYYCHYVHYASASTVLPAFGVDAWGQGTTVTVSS VL: DIVMTQSPLSLPVTPGEPASISCQASQELVHMNRVTYLHWYQQKPGQAPRLLIYKVSNRFPGVPDRFSGSGSGTDFTLKISRVEAEDVGVYYCAQGTSVPFTFGQGTKLEIK	0.5
H183/L072 VL T92Q (antibody, name in Kabat numbering, V domains shown) VH: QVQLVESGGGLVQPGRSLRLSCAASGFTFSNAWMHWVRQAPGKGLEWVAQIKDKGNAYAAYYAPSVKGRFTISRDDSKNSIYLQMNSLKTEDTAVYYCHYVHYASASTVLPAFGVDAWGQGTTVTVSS VL: DIVMTQSPLSLPVTPGEPASISCQASQELVHMNRNTYLHWYQQKPGQAPRLLIYKVSNRFPGVPDRFSGSGSGTDFTLKISRVEAEDVGVYYCAQGQSVPFTFGQGTKLEIK	0
H183/L072 VL S26T (antibody, name in Kabat numbering, V domains shown) VH: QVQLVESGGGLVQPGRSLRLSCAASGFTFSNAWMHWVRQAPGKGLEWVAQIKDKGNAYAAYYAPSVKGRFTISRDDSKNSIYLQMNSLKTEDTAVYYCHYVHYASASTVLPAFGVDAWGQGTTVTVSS VL: DIVMTQSPLSLPVTPGEPASISCQATQELVHMNRNTYLHWYQQKPGQAPRLLIYKVSNRFPGVPDRFSGSGSGTDFTLKISRVEAEDVGVYYCAQGTSVPFTFGQGTKLEIK	1.4
H183/L072 VL T92N (antibody, name in Kabat numbering, V domains shown) VH: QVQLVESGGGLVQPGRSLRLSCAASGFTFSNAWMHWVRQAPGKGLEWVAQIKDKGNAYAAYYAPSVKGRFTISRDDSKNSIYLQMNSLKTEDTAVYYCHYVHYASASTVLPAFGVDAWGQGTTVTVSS VL: DIVMTQSPLSLPVTPGEPASISCQASQELVHMNRNTYLHWYQQKPGQAPRLLIYKVSNRFPGVPDRFSGSGSGTDFTLKISRVEAEDVGVYYCAQGNSVPFTFGQGTKLEIK	0.2
H183/L072 VL E27aY (antibody, name in Kabat numbering, V domains shown) VH: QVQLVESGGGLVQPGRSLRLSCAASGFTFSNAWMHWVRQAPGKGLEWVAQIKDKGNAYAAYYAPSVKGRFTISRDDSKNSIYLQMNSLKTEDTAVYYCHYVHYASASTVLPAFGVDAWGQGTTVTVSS VL: DIVMTQSPLSLPVTPGEPASISCQASQYLVHMNRNTYLHWYQQKPGQAPRLLIYKVSNRFPGVPDRFSGSGSGTDFTLKISRVEAEDVGVYYCAQGTSVPFTFGQGTKLEIK	1.2
H183/L072 VL T92V (antibody, name in Kabat numbering, V domains shown) VH: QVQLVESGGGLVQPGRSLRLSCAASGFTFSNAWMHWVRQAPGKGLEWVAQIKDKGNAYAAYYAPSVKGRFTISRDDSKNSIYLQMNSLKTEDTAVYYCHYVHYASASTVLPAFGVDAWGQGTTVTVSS VL: DIVMTQSPLSLPVTPGEPASISCQASQELVHMNRNTYLHWYQQKPGQAPRLLIYKVSNRFPGVPDRFSGSGSGTDFTLKISRVEAEDVGVYYCAQGVSVPFTFGQGTKLEIK	0.4
H183/L072 VL K50S (antibody, name in Kabat numbering, V domains shown) VH: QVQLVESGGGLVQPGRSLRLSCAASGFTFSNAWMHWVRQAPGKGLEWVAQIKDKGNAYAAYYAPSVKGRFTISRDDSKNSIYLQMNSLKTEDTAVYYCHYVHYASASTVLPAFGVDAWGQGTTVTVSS VL: DIVMTQSPLSLPVTPGEPASISCQASQELVHMNRNTYLHWYQQKPGQAPRLLIYSVSNRFPGVPDRFSGSGSGTDFTLKISRVEAEDVGVYYCAQGTSVPFTFGQGTKLEIK	0

Moving on to the next binder.
Respond only with fold change of affinity recorded for H183/L072 VL S26M (antibody, name in Kabat numbering, V domains shown) VH: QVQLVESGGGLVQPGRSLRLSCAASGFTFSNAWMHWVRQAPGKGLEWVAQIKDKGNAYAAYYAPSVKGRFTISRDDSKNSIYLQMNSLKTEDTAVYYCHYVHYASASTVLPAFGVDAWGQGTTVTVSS VL: DIVMTQSPLSLPVTPGEPASISCQAMQELVHMNRNTYLHWYQQKPGQAPRLLIYKVSNRFPGVPDRFSGSGSGTDFTLKISRVEAEDVGVYYCAQGTSVPFTFGQGTKLEIK
0.6
